Tested on: NCI-H522 lung
Test: NCI-60 one-dose screen, 48 h
Details: 10 µM
About 83,000 compounds went through this panel and 20% of them were active in at least one assay; those are over-represented in the sample as a whole. The source made the active and inactive calls. Rule for the calls: active = growth percent below 10; inactive = the rest.
Just give me one of these, please: active, inactive

Ask | Given CC(=O)OC(C)C(=O)NCC(C)O (stereo not drawn) , state the outcome it received in this test.
Reply | inactive

Ask | Given CCc1cc(C)cc(O)c1 , state the outcome it received in this test.
Reply | inactive

Ask | Given Cn1cnc([N+](=O)[O-])c1Sc1ncn[nH]1 , state the outcome it received in this test.
Reply | inactive

Ask | Given CC(=O)OCC1OC(OC(C)=O)C(OC(C)=O)C(OC(C)=O)C1OC(C)=O (stereo not drawn) , state the outcome it received in this test.
Reply | inactive

Ask | Given C#CCOC(=O)Nc1ccccc1 , state the outcome it received in this test.
Reply | inactive

Ask | Given Cc1cc(-c2ccc(N=Nc3ccc4c(S(=O)(=O)O)cc(S(=O)(=O)O)c(N)c4c3O)c(C)c2)ccc1N=Nc1ccc2c(S(=O)(=O)O)cc(S(=O)(=O)O)c(N)c2c1O , state the outcome it received in this test.
Reply | inactive

Ask | Given COc1cc(C(O)C2C(=O)OCC2C2(c3ccc4c(c3)OCO4)SCCCS2)cc(OC)c1OC (stereo not drawn) , state the outcome it received in this test.
Reply | inactive

Ask | Given O=CN1CCCCC1 , state the outcome it received in this test.
Reply | inactive

Ask | Given O=C(/C=C/c1ccccc1)c1ccccc1 , state the outcome it received in this test.
Reply | inactive

Ask | Given CN(C)CC1CCCCCC(CN(C)C)C1=O (stereo not drawn) , state the outcome it received in this test.
Reply | active

Ask | Given Nc1nc(N)c2[nH]cnc2n1 , state the outcome it received in this test.
Reply | inactive

Ask | Given ClCCOCCOc1ccc(C2CCCCC2)cc1 , state the outcome it received in this test.
Reply | inactive

Ask | Given CC1=C/C(O)CC(=O)Cc2nc(co2)C(=O)N2CCC=C2C(=O)OC(C(C)C)C(C)/C=C\C(=O)NC/C=C\1 (stereo not drawn) , state the outcome it received in this test.
Reply | inactive

---

Kindly supply the reported growth values for the records listed here.
Test system: OVCAR-8 ovarian
Assay: NCI-60 one-dose screen, 48 h (100 = growth as untreated, 0 = no growth, -100 = all killed)
Settings: 10 µM unless noted
About 83,000 compounds went through this panel and 20% of them were active in at least one assay; those are over-represented in the sample as a whole.
Write the number in % without appending the unit.

Ask | Provide measured growth value, entry: Cc1cc2ccccc2cn1
Reply | 102

Ask | Provide measured growth value, entry: OCCN1CCCCCCC1
Reply | 101

Ask | Provide measured growth value, entry: c1ccc(-c2nc3ccccc3s2)cc1
Reply | 88.3

Ask | Provide measured growth value, entry: CCCCOC(=O)/C=C\C(=O)NC(N)=O
Reply | 71.1

Ask | Provide measured growth value, entry: OCC1OC(O)C(O)C(O)C1O (stereo not drawn)
Reply | 108

Ask | Provide measured growth value, entry: Nc1ncnc2c1ncn2C1OC(COP(=O)(O)O)C(O)C1O (stereo not drawn)
Reply | 111

Ask | Provide measured growth value, entry: O=C(/C=C/c1ccccc1)c1ccccc1
Reply | 103

Ask | Provide measured growth value, entry: O=C(O)CCCl
Reply | 104
